Molecular target: heat-denatured BSA (Bos taurus, UniProt P02769)
Construct: purchased Sigma-Aldrich
Sequence (P02769 25-607): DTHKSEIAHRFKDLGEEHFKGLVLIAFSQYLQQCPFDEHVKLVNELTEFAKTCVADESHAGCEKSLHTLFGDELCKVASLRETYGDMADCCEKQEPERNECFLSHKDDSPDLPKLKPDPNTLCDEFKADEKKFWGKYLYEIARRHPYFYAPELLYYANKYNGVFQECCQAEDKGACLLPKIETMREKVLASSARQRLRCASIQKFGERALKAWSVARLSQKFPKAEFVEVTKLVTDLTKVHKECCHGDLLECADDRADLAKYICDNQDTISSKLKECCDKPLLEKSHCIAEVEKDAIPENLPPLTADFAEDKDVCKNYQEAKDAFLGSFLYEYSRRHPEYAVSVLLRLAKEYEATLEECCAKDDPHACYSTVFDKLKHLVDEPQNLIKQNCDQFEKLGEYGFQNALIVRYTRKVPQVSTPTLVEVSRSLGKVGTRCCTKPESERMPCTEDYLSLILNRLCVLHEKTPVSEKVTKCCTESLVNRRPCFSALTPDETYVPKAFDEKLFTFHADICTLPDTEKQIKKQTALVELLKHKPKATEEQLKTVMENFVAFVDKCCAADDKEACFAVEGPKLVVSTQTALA
Assay: Turbidity (OD550) measurement and Hill plot analysis of peptides mixed with heat-denatured BSA reagent
Assay type: binding, bovine
Conditions: peptide mixed with heat-denatured BSA, final 0.2 w/v %
observable: change in OD550 with increasing peptide concentration

| substance | measured result |
| --- | --- |
| Fibrinogen α: neutral peptide Fibrinogen α (SEQ ID NO: 6) (DEAGSEADHEGTHSTKRGHAKSRPV; listed as Homo sapiens) | no change in OD550 |
| Factor XIII: acidic peptide Factor XIII (SEQ ID NO: 8) (AVPPNNSNAAEDDLPTVELQGVVPR; listed as Homo sapiens) | no change in OD550 |
| C3f: acidic peptide C3f (SEQ ID NO: 7) (HWESASLL; listed as Homo sapiens) | no change in OD550 |
